Every entry's value here was drawn from patent US20260274955A1.

Molecular target: Anti-CD28 Fab (SEQ ID NOs: 202, 203)
Sequence (VH, as listed by the source, chain 1 of 2): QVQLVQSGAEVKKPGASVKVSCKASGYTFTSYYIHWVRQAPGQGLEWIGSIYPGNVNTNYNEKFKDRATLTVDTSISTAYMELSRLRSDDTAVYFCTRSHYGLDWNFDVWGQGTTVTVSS
Sequence (VL, as listed by the source, chain 2 of 2): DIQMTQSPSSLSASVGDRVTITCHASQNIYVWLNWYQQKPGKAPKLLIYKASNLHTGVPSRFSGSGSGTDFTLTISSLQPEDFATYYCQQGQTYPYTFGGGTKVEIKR
Experiment: phage binding ELISA on captured Fab, competitor CD28 antigen;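 also: clonal phage supernatant binding in wells preincubated with CD28 antigen in blocking buffer, detected by HRP-conjugated anti-M13 antibody ELISA, compared with blocking buffer alone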
quantityMeasured: Anti-CD28 Fab signal in the presence of CD28

Consider the following illustrative entries.
Exercise: May I ask what Anti-CD28 Fab signal in the presence of CD28 has been recorded for YCEGHAQQYMLKCL [Phage-831] ?
Key: 0.05

Exercise: Endpoint output: Anti-CD28 Fab signal in the presence of CD28 of YCEGHVPEYLVKCL [Phage-778] . Value?
Key: 0.06

Exercise: Find the recorded Anti-CD28 Fab signal in the presence of CD28 belonging to YCDGHSGEYMSKCL [Phage-819] and report it.
Key: 0.06

Pending binder:
Exercise: Bench note: what Anti-CD28 Fab signal in the presence of CD28 did YCQGHFPQYMAKCL [Phage-777] show?
Key: 0.07
